Test: self-splicing fitness, log relative to wild type (ln ratio); higher = more splicing; Tetrahymena group I intron in knt gene, E. coli kanamycin selection, DiMSum; sequences stand for … in CUCUCU…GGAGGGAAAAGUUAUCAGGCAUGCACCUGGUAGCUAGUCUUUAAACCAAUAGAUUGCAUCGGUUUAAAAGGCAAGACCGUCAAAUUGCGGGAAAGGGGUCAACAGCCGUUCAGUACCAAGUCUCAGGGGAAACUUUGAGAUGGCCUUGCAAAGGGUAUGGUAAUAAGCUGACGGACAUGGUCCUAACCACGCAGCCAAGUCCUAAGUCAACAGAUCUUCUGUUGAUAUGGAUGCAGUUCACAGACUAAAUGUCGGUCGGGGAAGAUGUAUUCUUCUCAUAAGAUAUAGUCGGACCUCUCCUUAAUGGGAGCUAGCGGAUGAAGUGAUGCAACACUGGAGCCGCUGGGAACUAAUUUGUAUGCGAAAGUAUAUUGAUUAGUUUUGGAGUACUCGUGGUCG;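 further: selection with 25 µg/mL kanamycin versus none on LB agar overnight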
Details: 30 °C
Classification field: enter 1 for self-splicing fitness (ln) values not below -2, 0 for values below it.

Worked examples, 10 sequences total:
[[record]]
seq = "AUUGAGCAAUAUUACGUAAG"
category = 0

[[record]]
seq = "UUUUAGCAAUAUUACGUACG"
category = 0

[[record]]
seq = "UCAUAGCAAUAUUACGGACG"
category = 1

[[record]]
seq = "AUAAAGCAAUAUUACGCACA"
category = 1

[[record]]
seq = "AUUAAGCAAUAUUACGGGUA"
category = 0

[[record]]
seq = "AGUCAGCAAUAUUACGCAUC"
category = 1

[[record]]
seq = "AAAUAGCAAUAUUACGUGGG"
category = 0

[[record]]
seq = "AGGCAGCAAUAUUACGCCCU"
category = 0

[[record]]
seq = "UCGCAGCAAUAUUACGGUUU"
category = 0

[[record]]
seq = "GAUUAGCAAUAUUACGCAUC"
category = 0


[ask] I'd appreciate it if you could say whether UACGAGCAAUAUUACGCAAC has self-splicing fitness (ln) at least equal to -2.
[reply] 0

[ask] I'd appreciate it if you could say whether CCGGAGCAAUAUUACGAAUC has self-splicing fitness (ln) at least equal to -2.
[reply] 0

[ask] I'd appreciate it if you could say whether GGUAAGCAAUAUUACGAUAC has self-splicing fitness (ln) at least equal to -2.
[reply] 1

[ask] I'd appreciate it if you could say whether AGGUAGCAAUAUUACGCUGG has self-splicing fitness (ln) at least equal to -2.
[reply] 0

[ask] I'd appreciate it if you could say whether AAGAAGCAAUAUUACGGUGC has self-splicing fitness (ln) at least equal to -2.
[reply] 0

---

Experiment: self-splicing fitness, log relative to wild type (ln ratio); higher = more splicing; Tetrahymena group I intron in knt gene, E. coli kanamycin selection, DiMSum; sequences stand for … in CUCUCU…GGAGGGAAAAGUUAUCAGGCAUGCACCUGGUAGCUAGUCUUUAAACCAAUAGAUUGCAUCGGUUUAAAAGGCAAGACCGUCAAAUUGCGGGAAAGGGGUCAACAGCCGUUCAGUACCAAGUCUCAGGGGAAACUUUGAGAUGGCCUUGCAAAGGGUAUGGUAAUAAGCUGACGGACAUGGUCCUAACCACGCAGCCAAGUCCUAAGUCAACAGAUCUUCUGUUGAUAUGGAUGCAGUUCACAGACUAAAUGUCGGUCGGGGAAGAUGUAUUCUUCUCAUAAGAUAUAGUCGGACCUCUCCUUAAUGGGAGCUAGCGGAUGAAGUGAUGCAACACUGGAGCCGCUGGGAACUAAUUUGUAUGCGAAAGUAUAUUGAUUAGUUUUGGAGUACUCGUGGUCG
Conditions: 37 °C
Classes are defined on self-splicing fitness (ln) with ranges bottom range = under -2, center range = from -2 up to -0.8, top range = -0.8 and over

Worked examples, 5 sequences total:
[[record]]
seq = "CACAAGCAAUAUUACGGUUG"
category = "center range"

[[record]]
seq = "CUUAAGCAAUAUUACGAACC"
category = "top range"

[[record]]
seq = "AGUGAGCAAUAUUACGUAAU"
category = "center range"

[[record]]
seq = "AGCCAGCAAUAUUACGCCUC"
category = "top range"

[[record]]
seq = "UCUAAGCAAUAUUACGUUAU"
category = "bottom range"


[ask] Hi, small favor: classify UCAGAGCAAUAUUACGAAAG by its self-splicing fitness (ln) when you get a moment.
[reply] center range

[ask] Hi, small favor: classify CAUCAGCAAUAUUACGACUA by its self-splicing fitness (ln) when you get a moment.
[reply] top range

[ask] Hi, small favor: classify AAAUAGCAAUAUUACGGAUU by its self-splicing fitness (ln) when you get a moment.
[reply] center range

---

Test: self-splicing fitness, log relative to wild type (ln ratio); higher = more splicing; Tetrahymena group I intron in knt gene, E. coli kanamycin selection, DiMSum; sequences stand for … in CUCUCU…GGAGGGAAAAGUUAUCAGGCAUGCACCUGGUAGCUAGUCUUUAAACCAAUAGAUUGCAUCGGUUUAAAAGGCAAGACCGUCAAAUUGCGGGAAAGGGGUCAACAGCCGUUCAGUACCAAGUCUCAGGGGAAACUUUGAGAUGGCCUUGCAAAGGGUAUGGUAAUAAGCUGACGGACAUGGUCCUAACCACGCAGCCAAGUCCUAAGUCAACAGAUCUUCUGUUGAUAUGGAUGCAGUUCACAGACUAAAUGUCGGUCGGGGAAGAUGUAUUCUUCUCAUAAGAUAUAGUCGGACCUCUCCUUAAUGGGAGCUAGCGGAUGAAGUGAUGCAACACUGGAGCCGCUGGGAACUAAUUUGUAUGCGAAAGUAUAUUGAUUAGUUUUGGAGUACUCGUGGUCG
Details: 30 °C
metric-name: self-splicing fitness (ln)
Answers are plain numbers.

Previously resolved entries follow.
[[record]]
seq = "GCCAAGCAAUAUUACGUCUC"
recorded_measurement = -0.775

[[record]]
seq = "CAUUAGCAAUAUUACGAGCG"
recorded_measurement = 0.0198

[[record]]
seq = "CCCAAGCAAUAUUACGGUAA"
recorded_measurement = -2.25

[[record]]
seq = "ACGGAGCAAUAUUACGAUUG"
recorded_measurement = -3.04


Your task in this section: give self-splicing fitness (ln) for each listed record.
1. CCGAAGCAAUAUUACGGCCG
2. AUAAAGCAAUAUUACGACGG

[reply]
1. -0.396
2. -1.66

Your task in this section: give self-splicing fitness (ln) for each listed record.
1. CAGCAGCAAUAUUACGCUCA
2. UAUGAGCAAUAUUACGCAGU
3. UCUUAGCAAUAUUACGACUU
4. GCUGAGCAAUAUUACGUAUU
5. AGUAAGCAAUAUUACGGCGC
6. GUGGAGCAAUAUUACGGUGU

[reply]
[-0.65, -1.98, -3.52, -4.1, -1.02, -2.5]

---

Test: self-splicing fitness, log relative to wild type (ln ratio); higher = more splicing; Tetrahymena group I intron in knt gene, E. coli kanamycin selection, DiMSum; sequences stand for … in CUCUCU…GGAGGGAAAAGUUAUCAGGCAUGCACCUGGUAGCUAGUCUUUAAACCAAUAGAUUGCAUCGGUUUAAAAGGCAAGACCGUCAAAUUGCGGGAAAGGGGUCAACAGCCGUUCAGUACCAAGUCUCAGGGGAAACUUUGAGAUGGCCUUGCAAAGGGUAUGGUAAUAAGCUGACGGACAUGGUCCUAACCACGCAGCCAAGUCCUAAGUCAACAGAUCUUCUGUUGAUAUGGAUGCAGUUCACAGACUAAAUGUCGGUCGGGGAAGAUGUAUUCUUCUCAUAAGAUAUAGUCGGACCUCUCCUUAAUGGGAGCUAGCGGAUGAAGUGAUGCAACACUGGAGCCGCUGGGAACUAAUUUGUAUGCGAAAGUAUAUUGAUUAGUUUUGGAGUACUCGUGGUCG
Details: 37 °C
Classification field: enter 1 for self-splicing fitness (ln) values not below -2, -1 for values below it.

[[record]]
seq = "GUAAAGCAAUAUUACGGAAA"
category = 1

[[record]]
seq = "CGCCAGCAAUAUUACGUGGC"
category = -1


[ask] I'd appreciate it if you could say whether GGGUAGCAAUAUUACGUGGG has self-splicing fitness (ln) at least equal to -2.
[reply] -1

---

Assay: self-splicing fitness, log relative to wild type (ln ratio); higher = more splicing; Tetrahymena group I intron in knt gene, E. coli kanamycin selection, DiMSum; sequences stand for … in CUCUCU…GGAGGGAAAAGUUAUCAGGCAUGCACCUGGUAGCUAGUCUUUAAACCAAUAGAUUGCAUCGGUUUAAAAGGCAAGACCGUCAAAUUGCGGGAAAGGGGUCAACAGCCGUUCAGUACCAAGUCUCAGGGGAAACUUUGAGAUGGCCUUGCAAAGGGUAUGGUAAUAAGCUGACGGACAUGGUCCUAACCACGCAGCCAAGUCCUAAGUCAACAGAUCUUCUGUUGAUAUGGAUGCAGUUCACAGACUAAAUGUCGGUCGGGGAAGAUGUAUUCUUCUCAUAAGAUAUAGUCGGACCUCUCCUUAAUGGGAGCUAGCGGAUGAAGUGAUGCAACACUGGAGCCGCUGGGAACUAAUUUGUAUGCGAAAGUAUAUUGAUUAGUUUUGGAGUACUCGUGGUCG
Details: 37 °C
metric-name: self-splicing fitness (ln)

Previously resolved entries follow.
[[record]]
seq = "UCUUAGCAAUAUUACGUCAC"
recorded_measurement = -1.9

[[record]]
seq = "UCGUAGCAAUAUUACGAGUG"
recorded_measurement = -3.09

[[record]]
seq = "CAGUAGCAAUAUUACGUCGC"
recorded_measurement = -2.7

[[record]]
seq = "ACGAAGCAAUAUUACGUGGC"
recorded_measurement = -2.04

[[record]]
seq = "GCCCAGCAAUAUUACGCUAU"
recorded_measurement = -0.309


Your task in this section: give self-splicing fitness (ln) for each listed record.
1. UUUCAGCAAUAUUACGAGUA
2. ACCAAGCAAUAUUACGGUGC
3. GUUCAGCAAUAUUACGGUAG

[reply]
-0.691
-2.12
-0.531
